Parameter MFI: see the listing below.
- target_system: T1, MERS-CoV (NCoV/Novel coronavirus) Spike Protein S1 Protein (aa 1-725, His Tag) (Sino 40069-V08B1) (MERS-CoV, UniProt K9N5Q8 18-725)
- T1 sequence: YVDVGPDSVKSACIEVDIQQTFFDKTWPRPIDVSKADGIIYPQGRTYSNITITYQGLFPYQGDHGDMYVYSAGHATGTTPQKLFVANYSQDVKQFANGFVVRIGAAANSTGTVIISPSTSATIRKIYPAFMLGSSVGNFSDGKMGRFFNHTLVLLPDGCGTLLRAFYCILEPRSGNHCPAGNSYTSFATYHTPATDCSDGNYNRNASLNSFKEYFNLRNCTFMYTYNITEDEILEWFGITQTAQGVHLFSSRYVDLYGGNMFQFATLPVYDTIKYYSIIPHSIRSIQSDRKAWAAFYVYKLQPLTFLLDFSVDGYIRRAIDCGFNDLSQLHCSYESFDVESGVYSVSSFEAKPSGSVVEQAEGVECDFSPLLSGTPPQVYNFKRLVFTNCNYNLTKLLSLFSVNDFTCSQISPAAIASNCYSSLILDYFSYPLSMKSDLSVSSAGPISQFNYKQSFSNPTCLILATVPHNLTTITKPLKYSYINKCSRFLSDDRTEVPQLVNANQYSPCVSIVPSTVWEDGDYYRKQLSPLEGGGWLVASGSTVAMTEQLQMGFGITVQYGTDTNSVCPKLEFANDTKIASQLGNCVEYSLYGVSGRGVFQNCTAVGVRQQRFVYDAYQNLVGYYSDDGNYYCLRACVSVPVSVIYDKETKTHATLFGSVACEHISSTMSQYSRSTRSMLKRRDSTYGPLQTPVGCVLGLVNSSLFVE
- method: Luminex, supernatant
metric_name: MFI (MFI)

[[record]]
binder = "mAb10938 (antibody, V domains shown) VH: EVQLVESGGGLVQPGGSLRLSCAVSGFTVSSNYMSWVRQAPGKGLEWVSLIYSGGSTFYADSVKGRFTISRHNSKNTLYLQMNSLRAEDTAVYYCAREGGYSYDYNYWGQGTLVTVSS VL: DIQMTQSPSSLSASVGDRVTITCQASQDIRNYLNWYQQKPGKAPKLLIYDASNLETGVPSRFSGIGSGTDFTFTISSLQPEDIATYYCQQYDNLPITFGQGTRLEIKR"
quantity_unit = "MFI"
result = 20

[[record]]
binder = "mAb10914 (antibody, V domains shown) VH: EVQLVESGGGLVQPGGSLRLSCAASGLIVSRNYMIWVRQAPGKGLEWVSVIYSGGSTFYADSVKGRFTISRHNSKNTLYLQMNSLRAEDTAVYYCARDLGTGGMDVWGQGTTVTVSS VL: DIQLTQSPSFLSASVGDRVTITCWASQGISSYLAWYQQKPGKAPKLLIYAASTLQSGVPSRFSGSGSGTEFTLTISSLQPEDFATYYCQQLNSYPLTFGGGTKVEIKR"
quantity_unit = "MFI"
result = 23

[[record]]
binder = "mAb10984 (antibody, V domains shown) VH: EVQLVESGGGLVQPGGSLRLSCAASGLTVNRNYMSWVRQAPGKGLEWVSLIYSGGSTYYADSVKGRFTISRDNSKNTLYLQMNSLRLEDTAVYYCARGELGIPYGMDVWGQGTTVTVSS VL: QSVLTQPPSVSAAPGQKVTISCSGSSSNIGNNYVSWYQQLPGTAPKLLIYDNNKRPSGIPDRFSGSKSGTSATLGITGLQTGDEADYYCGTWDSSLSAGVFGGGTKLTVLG"
quantity_unit = "MFI"
result = 20

[[record]]
binder = "mAb10913 (antibody, V domains shown) VH: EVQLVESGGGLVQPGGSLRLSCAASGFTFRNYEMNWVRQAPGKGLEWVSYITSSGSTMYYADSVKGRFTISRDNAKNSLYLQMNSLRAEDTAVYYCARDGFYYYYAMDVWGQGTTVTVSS VL: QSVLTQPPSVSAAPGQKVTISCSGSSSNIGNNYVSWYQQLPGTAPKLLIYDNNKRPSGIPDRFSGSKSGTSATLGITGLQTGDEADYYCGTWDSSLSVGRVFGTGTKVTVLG"
quantity_unit = "MFI"
result = 26

[[record]]
binder = "mAb10920 (antibody, V domains shown) VH: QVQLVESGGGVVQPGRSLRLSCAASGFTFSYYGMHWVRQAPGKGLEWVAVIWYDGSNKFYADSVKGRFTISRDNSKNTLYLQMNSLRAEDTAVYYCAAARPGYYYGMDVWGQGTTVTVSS VL: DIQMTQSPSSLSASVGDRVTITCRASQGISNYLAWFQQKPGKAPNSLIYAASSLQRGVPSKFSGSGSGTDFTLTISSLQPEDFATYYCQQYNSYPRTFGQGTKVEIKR"
quantity_unit = "MFI"
result = 27

[[record]]
binder = "mAb10986 (antibody, V domains shown) VH: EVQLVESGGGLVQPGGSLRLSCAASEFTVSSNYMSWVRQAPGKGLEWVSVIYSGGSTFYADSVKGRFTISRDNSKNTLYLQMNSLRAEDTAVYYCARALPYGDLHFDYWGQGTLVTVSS VL: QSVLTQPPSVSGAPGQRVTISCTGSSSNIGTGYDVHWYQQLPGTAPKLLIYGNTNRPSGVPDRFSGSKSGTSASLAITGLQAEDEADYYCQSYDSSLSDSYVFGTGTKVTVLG"
quantity_unit = "MFI"
result = 20

[[record]]
binder = "mAb10985 (antibody, V domains shown) VH: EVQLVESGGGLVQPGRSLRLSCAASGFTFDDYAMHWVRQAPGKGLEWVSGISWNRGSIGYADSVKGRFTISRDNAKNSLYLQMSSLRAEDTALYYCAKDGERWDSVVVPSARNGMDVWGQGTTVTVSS VL: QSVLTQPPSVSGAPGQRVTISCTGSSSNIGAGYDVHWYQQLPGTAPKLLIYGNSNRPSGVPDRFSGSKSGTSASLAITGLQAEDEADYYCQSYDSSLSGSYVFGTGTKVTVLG"
quantity_unit = "MFI"
result = 22

